Numbers sourced from patent US8822500B2.

target or system: UniProtKB P04629
Sequence (P04629 33-796): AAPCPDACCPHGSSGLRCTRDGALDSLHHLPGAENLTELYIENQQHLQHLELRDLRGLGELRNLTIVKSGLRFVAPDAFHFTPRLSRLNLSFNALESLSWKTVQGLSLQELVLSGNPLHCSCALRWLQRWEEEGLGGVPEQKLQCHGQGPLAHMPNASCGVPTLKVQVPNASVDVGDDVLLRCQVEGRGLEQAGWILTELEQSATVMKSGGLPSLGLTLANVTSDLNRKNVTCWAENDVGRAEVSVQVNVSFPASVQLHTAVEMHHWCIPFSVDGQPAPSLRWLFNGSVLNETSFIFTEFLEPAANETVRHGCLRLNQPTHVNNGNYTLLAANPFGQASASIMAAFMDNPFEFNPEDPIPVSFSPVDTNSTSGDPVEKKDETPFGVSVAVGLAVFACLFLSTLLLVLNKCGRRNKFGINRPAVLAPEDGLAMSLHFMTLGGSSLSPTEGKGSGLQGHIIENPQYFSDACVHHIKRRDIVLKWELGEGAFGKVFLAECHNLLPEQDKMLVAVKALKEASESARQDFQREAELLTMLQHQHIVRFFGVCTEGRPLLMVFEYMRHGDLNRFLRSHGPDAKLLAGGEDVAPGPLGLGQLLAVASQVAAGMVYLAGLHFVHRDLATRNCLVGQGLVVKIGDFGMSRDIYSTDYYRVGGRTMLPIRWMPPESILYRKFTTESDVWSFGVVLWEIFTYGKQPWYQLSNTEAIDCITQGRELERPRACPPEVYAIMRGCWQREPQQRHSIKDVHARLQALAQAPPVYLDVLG
experiment description: In vitro kinase activity assay (LANCE TR-FRET);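 note: kinase reaction with poly-GT peptide substrate and ATP, phosphorylated product quantified by time-resolved FRET, eleven-point dose curves from 10^−11 to 10^−5 M in triplicate, DMSO as negative control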
Assay type: biochemical
measurement setup: read-out: TrkA (nM) IC50
readout type: IC50 (nM)

Look over these answered cases.
[
  {
    "compound": "CC(Cc1c(F)c(F)cc(F)c1F)Nc1cc[nH]c(=O)c1-c1nc2cc3c(cc2n1C)CN(C)C3=O (stereo not shown)",
    "units text": "nM",
    "IC50": 9490
  },
  {
    "compound": "CC(Cc1c(F)c(F)cc(F)c1F)Nc1cc[nH]c(=O)c1-c1nc2cc3c(cc2[nH]1)C(=O)N(C)C3 (stereo not shown)",
    "units text": "nM",
    "IC50": 7.27
  },
  {
    "compound": "CC(Cc1cc(F)ccc1F)Nc1cc[nH]c(=O)c1-c1nc2cc3c(cc2[nH]1)CN(C)C3=O (stereo not shown)",
    "units text": "nM",
    "IC50": 5.13
  },
  {
    "compound": "Cc1c2c(cc3[nH]c(-c4c(NC(C)Cc5c(F)c(F)cc(F)c5F)cc[nH]c4=O)nc13)C(=O)N(C1CCN(C)CC1)C2 (stereo not shown) [Compound 24A]",
    "units text": "nM",
    "IC50": 5.99
  }
]

a = CC(Cc1cc(F)ccc1F)Nc1cc[nH]c(=O)c1-c1nc2cc3c(cc2[nH]1)C(=O)N(CCN(C)C)C3 (racemic)
b = CC(Cc1cc(F)ccc1F)Nc1cc[nH]c(=O)c1-c1nc2cc3c(cc2[nH]1)CNC3=O (stereo not shown)
c = C[C@@H](Cc1c(F)c(F)cc(F)c1F)Nc1cc[nH]c(=O)c1-c1nc2cc3c(cc2[nH]1)C(=O)N(CCN(C)C)C3=O
d = COC1c2cc3nc(-c4c(N[C@@H](C)Cc5c(F)c(F)cc(F)c5F)cc[nH]c4=O)[nH]c3cc2C(=O)N1c1cccnc1 (stereo partly shown)
INPUT: // ranking: key=IC50, reverse=True Respond with the label ranking, as requested.
OUTPUT: d, c, b, a
(d: 41.6 nM, c: 12.2 nM, b: 7.81 nM, a: 4.33 nM)
